Test: Inhibition of rat human chimera TRPV1 channel expressed in CHO cells
Format: cell-based
Property name: pIC50

Smiles text	pIC50
O=C(/C=C/c1ccc(F)c(F)c1)Nc1ccc2c(c1)OCCO2	5.88
CC(=O)Oc1ccc(/C=C/C(=O)Nc2ccc3c(c2)OCCO3)cc1	5.63
CC(C)(C)c1ccc(C(=CC(=O)Nc2ccc3c(c2)OCCO3)c2ccc(C(C)(C)C)cc2)cc1	5.6
O=C(/C=C/c1ccc(Cl)c(Cl)c1)Nc1ccc2c(c1)OCCO2	6.35
CCC/C(=C\C(=O)Nc1ccc2c(c1)OCCO2)c1ccc(C(C)(C)C)cc1	6.92
CCc1ccc(/C=C/C(=O)Nc2ccc3c(c2)OCCO3)cc1	6.61

---

Assay: Inhibition of rat human chimera TRPV1 channel expressed in CHO cells
Type: cell-based
Property name: pIC50

Smiles text	Reported measurement
COc1cccc(NC(=O)/C=C/c2ccc(C(C)(C)C)cc2)c1	7.24
O=C(/C=C/c1ccc(C2CC2)cc1)Nc1ccc2c(c1)OCCO2	6.38
CCOC(=O)c1cc(C(C)(C)C)ccc1/C=C/C(=O)Nc1ccc2c(c1)OCCO2	7.58
COc1ccccc1NC(=O)/C=C/c1ccc(C(C)(C)C)cc1	6.07
O=C(/C=C/c1ccc(C(F)(F)F)c(F)c1)Nc1ccc2c(c1)OCCO2	6.89
O=C(/C=C/c1ccc([N+](=O)[O-])cc1)Nc1ccc2c(c1)OCCO2	6.23
Cc1ccc(/C=C/C(=O)Nc2ccc3c(c2)OCCO3)cc1	6.53
O=C(C=C(c1ccc(Br)cc1)c1ccc(Br)cc1)Nc1ccc2c(c1)OCCO2	7.22
CC(=O)Nc1ccc(/C=C/C(=O)Nc2ccc3c(c2)OCCO3)cc1	4.4
Cc1ccccc1/C(=C/C(=O)Nc1ccc2c(c1)OCCO2)c1ccc(C(C)(C)C)cc1	6.55

1: O=C(/C=C/c1cccc(C(F)(F)F)c1)Nc1ccc2c(c1)OCCO2
2: O=C(/C=C/c1ccc(C(F)(F)F)nc1N1CCOCC1)Nc1ccc2cccnc2c1
Query string: Given the listed records, identify the one among 1 and 2 with higher pIC50. Let me know the label of the one you choose.
Result string: 2
(2: 8.78, 1: 5.92)

---

Experiment: Inhibition of rat human chimera TRPV1 channel expressed in CHO cells
Format: cell-based
pIC50: −log10 of the molar value.
Property name: pIC50

Some solved entries appear below for comparison.
Molecule	Reported measurement
CC(C)(C)c1ccc(/C=C\C(=O)Nc2ccc3c(c2)OCCO3)cc1	5.72
O=C(/C=C/c1ccc(F)cc1)Nc1ccc2c(c1)OCCO2	5.83
CCC(C)/C(=C\c1ccc(C(C)(C)C)cc1)C(=O)Nc1ccc2c(c1)OCCO2 (stereo not drawn)	6.26

a: CC(C)(C)c1ccc(/C=C/C(=O)Nc2ccc3c(c2)OC[C@@H](CNCO)O3)cc1
b: CC(C)(C)c1ccc(/C=C/C(=O)Nc2ccc3c(c2)NCCO3)cc1
Query string: Given the listed records, identify the one among a and b with higher pIC50. Let me know the label of the one you choose.
Result string: b
(b: 6.76, a: 6.16)

P: CC(C)(C)c1ccc(/C=C/C(=S)Nc2ccc3c(c2)OCCO3)cc1
Q: COc1ccc(/C=C/C(=O)Nc2ccc3c(c2)OCCO3)cc1
Query string: I'm curious, which of these has a smaller pIC50 number: P or Q ? Let me know the label of the one you choose.
Result string: Q
(Q: 5.73, P: 6.41)

I: O=C(/C=C/c1ccc2ccccc2c1)Nc1ccc2c(c1)OCCO2
II: CC(C)(C)c1ccc(/C=C(/C(=O)Nc2ccc3c(c2)OCCO3)c2ccccc2)cc1
Query string: Given the listed records, identify the one among I and II with higher pIC50. Let me know the label of the one you choose.
Result string: I

A: CC(C)(C)c1ccc(/C(=C/C(=O)Nc2ccc3c(c2)OCCO3)c2ccncc2)cc1
B: Cc1cccc(/C(=C/C(=O)Nc2ccc3c(c2)OCCO3)c2ccc(C(C)(C)C)cc2)c1
C: CC(C)(C)c1cccc(/C=C/C(=O)Nc2ccc3c(c2)OCCO3)c1
D: O=C(/C=C/c1ccccc1)Nc1ccc2c(c1)OCCO2
Query string: Could you please order the items by pIC50, going from the lowest number to the highest? Please reply with the labels ordered as requested. Many thanks.
Result string: D, C, A, B

---

Assay: Inhibition of rat human chimera TRPV1 channel expressed in CHO cells
Format: cell-based
Property name: pIC50

Smiles text	Reported measurement
O=C(/C=C/c1ccc(Cl)cc1)Nc1cccc(Cl)c1	6
COc1ccc(NC(=O)/C=C/c2ccc(C(C)(C)C)cc2)cc1	6.78
COc1ccc(NC(=O)/C=C/c2ccc(C(C)(C)C)cc2)cc1OC	6.64
CC(C)(C)c1ccc(/C(=C/C(=O)Nc2ccc3c(c2)OCCO3)c2ccc(C(F)(F)F)cc2)cc1	7.33
CCOC(=O)CC/C(=C\C(=O)Nc1ccc2c(c1)OCCO2)c1ccc(C(C)(C)C)cc1	7.25
O=C(/C=C/c1ccccc1)Nc1ccc2c(c1)OCCO2	5.29

---

Test: Inhibition of rat human chimera TRPV1 channel expressed in CHO cells
Type: cell-based
Property name: IC50 (nM)

Some solved entries appear below for comparison.
Smiles text	Output unit	IC50
CC(C)(C)c1ccc(/C=C/C(=O)Nc2ccccc2)cc1	nM	269
O=C(/C=C/c1ccc(Cl)cc1)Nc1cccc(Cl)c1	nM	993
CC(C)(C)c1ccc(/C=C(/C(=O)Nc2ccc3c(c2)OCCO3)C2CCCC2)cc1	nM	15400

A: CN(C)C[C@@H]1COc2cc(NC(=O)/C=C/c3ccc(C(C)(C)C)cc3)ccc2O1
B: COc1ccc(NC(=O)/C=C/c2ccc(C(C)(C)C)cc2)cc1OC
C: CC(C)(C)c1ccc(/C(=C/C(=O)Nc2ccc3c(c2)OCCO3)Cc2ccccc2)cc1
D: CC(C)(C)c1ccc(/C=C/C(=O)Nc2cccc(C(N)=O)c2)cc1
Query string: Order the 4 molecules from highest to lowest IC50. Please reply with the labels ordered as requested. Many thanks.
Result string: A, B, D, C
(A: 665 nM, B: 230 nM, D: 33 nM, C: 21 nM)

A: C/C(=C\c1ccc(C(C)(C)C)cc1)C(=O)Nc1ccc2c(c1)OCCO2
B: CC(C)(C)c1ccc(/C=C/C(=O)Nc2ccc3c(c2)OC[C@@H](COCC2CC2)O3)cc1
Query string: Given the listed records, identify the one among A and B with higher IC50. Let me know the label of the one you choose.
Result string: B

---

Assay: Inhibition of rat human chimera TRPV1 channel expressed in CHO cells
Assay type: cell-based
Property name: pIC50

Smiles text	Reported measurement
Cc1cccc(/C(=C/C(=O)Nc2ccc3c(c2)OCCO3)c2ccc(C(C)(C)C)cc2)c1	7.23
COc1cc(/C=C/C(=O)Nc2ccc3c(c2)OCCO3)cc(OC)c1OC	4.4
CC(C)(C)c1ccc(/C=C/C(=O)Nc2ccc3c(c2)OC[C@@H](CNCO)O3)cc1	6.16
C/C(=C\C(=O)Nc1ccc2c(c1)OCCO2)c1ccc(C(C)(C)C)cc1	7.09
O=C(/C=C/c1ccc(F)cc1F)Nc1ccc2c(c1)OCCO2	5.44

---

Experiment: Inhibition of rat human chimera TRPV1 channel expressed in CHO cells
Type: cell-based
Property name: pIC50

Some solved entries appear below for comparison.
Molecule	pIC50
CCC(C)(C)c1ccc(/C=C/C(=O)Nc2ccc3c(c2)OCCO3)cc1	7.32
CC(C)(C)c1ccc(/C(=C\C(=O)Nc2ccc3c(c2)OCCO3)c2ccc(Cl)cc2)cc1	7.37
CC(C)(C)c1ccc(/C(=C\C(=O)Nc2ccc3c(c2)OCCO3)c2cccc(N)c2)cc1	6.48
CCC(C)/C(=C\c1ccc(C(C)(C)C)cc1)C(=O)Nc1ccc2c(c1)OCCO2 (stereo not given)	6.26

1: C/C(=C\c1ccc(C(C)(C)C)cc1)C(=O)Nc1ccc2c(c1)OCCO2
2: O=C(/C=C/c1ccc(-c2ccccc2)cc1)Nc1ccc2c(c1)OCCO2
Query string: Given the listed records, identify the one among 1 and 2 with higher pIC50. Let me know the label of the one you choose.
Result string: 1

---

Test: Inhibition of rat human chimera TRPV1 channel expressed in CHO cells
Format: cell-based
Property name: pIC50

Smiles text	pIC50
CC(C)(C)c1ccc(/C=C/C(=O)Nc2ccc3c(c2)OCCO3)nc1	5.97
CC(C)(C)c1ccc(/C=C/C(=O)Nc2ccc3c(c2)OCCO3)cc1.Cl	6.26

a: COc1ccc(/C(=C/C(=O)Nc2ccc3c(c2)OCCO3)c2ccc(C(C)(C)C)cc2)cc1
b: CC(C)(C)c1ccc(/C=C/CNc2ccc3c(c2)OCCO3)cc1
Query string: Given the listed records, identify the one among a and b with higher pIC50. Let me know the label of the one you choose.
Result string: a

---

Assay: Inhibition of rat human chimera TRPV1 channel expressed in CHO cells
Assay type: cell-based
Property name: pIC50

Molecule	pIC50
CC(C)(C)c1ccc(/C=C/C(=O)Nc2ccc3c(c2)OC[C@H](CO)O3)cc1	7.62
CC/C(=C\c1ccc(C(C)(C)C)cc1)C(=O)Nc1ccc2c(c1)OCCO2	6.3
CC(C)(C)c1ccc(/C=C(/C(=O)Nc2ccc3c(c2)OCCO3)C2CCCC2)cc1	4.81
CC(C)(C)c1ccc(/C=C/C(=O)Nc2cccc(OCCO)c2)cc1	6.07
C=Cc1ccc(/C=C/C(=O)Nc2ccc3c(c2)OCCO3)cc1	5.45
O=C(/C=C/c1ccc(C(F)(F)F)cc1)Nc1ccc2c(c1)OCCO2	6.92
Cc1nc(C(F)(F)F)ccc1/C=C/C(=O)Nc1ccc2c(c1)OCCO2	5.95
CC(C)(C)c1ccc(/C=C(/C(=O)Nc2ccc3c(c2)OCCO3)c2ccccc2)cc1	4.97
CC(C)Cc1ccc(/C=C/C(=O)Nc2ccc3c(c2)OCCO3)cc1	5.99
CC(C)(C)c1ccc(/C=C/C(=O)Nc2ccc3c(c2)OCCO3)cc1 (stereo in doubt; 91)	6.87
